# testMethodNotes: Quantitative High-Throughput drug screen in 47 multiple myeloma cell lines against the NCATS MIPE library collection: NCIH929_DSMZ cell viability assay (AID 1918978); note: nearly all actives have a fitted effect of over 35% in size
# conditionParameters: NCI-H929 myeloma viability, CellTiter-Glo ATP, 48 h; series mostly up to 45.8 µM
Inconclusive results are not listed. Calls of active or inactive are those of the source. Calls come from the whole dose curve; as a rule, active = well fitted cell-killing curve with a large enough effect; inconclusive = small, poorly fitted or top-dose-only effect; inactive = no such curve, though single readings can be large or run the other way.
Assign a class; possible classes are 1 (yes) for active, 0 (no) for inactive

Illustrative cases are given below, each with its answer.
Exercise: // return assay outcome for Cc1cc(Nc2cc(N3CCN(C)CC3)nc(Sc3ccc(NC(=O)C4CC4)cc3)n2)n[nH]1
Solution: 1 (yes)

Exercise: // return assay outcome for CCn1nnc2c(N3CCOCC3)nc(-c3ccc(NC(=O)Nc4ccc(C(=O)N5CCN(C)CC5)cc4)cc3)nc21
Solution: 1 (yes)

Exercise: // return assay outcome for Cc1ccc(CN2CCNCC2)cc1NC(=O)CNc1ccc(F)c(F)c1
Solution: 0 (no)

Exercise: // return assay outcome for Cn1c2cc(S(C)=O)sc2c2cnn(Cc3cccc(N)c3)c(=O)c21 (stereo unspecified)
Solution: 0 (no)

Exercise: // return assay outcome for Cc1[nH]c2ccccc2c1CCNCc1ccc(C=CC(=O)NO)cc1
Solution: 1 (yes)

Exercise: // return assay outcome for O=C(Nc1cn[nH]c1-c1nc2ccc(CN3CCOCC3)cc2[nH]1)NC1CC1
Solution: 1 (yes)

Continuing:
Exercise: // return assay outcome for CNC(=O)c1c(F)cccc1Nc1nc(Nc2cc3c(cc2OC)CCN3C(=O)CN(C)C)nc2[nH]ccc12
Solution: 1 (yes)

Exercise: // return assay outcome for Nc1nccc(Oc2ccc(NC(=O)c3c[nH]cc(-c4ccc(F)cc4)c3=O)cc2F)c1Cl
Solution: 1 (yes)

Exercise: // return assay outcome for C#Cc1cccc(Nc2ncnc3cc(OC)c(OCCCCCCC(=O)NO)cc23)c1
Solution: 1 (yes)

Exercise: // return assay outcome for CNc1nccc(-c2cccnc2Oc2cc(C(=O)Nc3cccc(C(F)(F)F)c3)ccc2C)n1
Solution: 1 (yes)

Exercise: // return assay outcome for CCCCCCCCCC(=O)N[C@@H](Cc1c[nH]c2ccccc12)C(=O)N[C@H](CC(N)=O)C(=O)N[C@@H](CC(=O)O)C(=O)N[C@@H]1C(=O)NCC(=O)N[C@@H](CCCN)C(=O)N[C@@H](CC(=O)O)C(=O)N[C@H](C)C(=O)N[C@@H](CC(=O)O)C(=O)NCC(=O)N[C@H](CO)C(=O)N[C@@H]([C@@H](C)CC(=O)O)C(=O)N[C@@H](CC(=O)c2ccccc2N)C(=O)O[C@@H]1C
Solution: 0 (no)

Exercise: // return assay outcome for O=C(CCCCCCC(=O)Nc1ccc([C@H]2O[C@@H](CSc3nc(-c4ccccc4)c(-c4ccccc4)o3)C[C@@H](c3ccc(CO)cc3)O2)cc1)NO
Solution: 1 (yes)

Exercise: // return assay outcome for CC(C)c1cc(-c2n[nH]c(=O)n2-c2ccc3c(ccn3C)c2)c(O)cc1O
Solution: 1 (yes)

Exercise: // return assay outcome for CCN1CCN(CC(=O)Nc2ccc(-c3cccc4c(=O)cc(N5CCOCC5)oc34)c3sc4ccccc4c23)CC1
Solution: 1 (yes)

Exercise: // return assay outcome for c1ccc2c(CCNc3ccc(Nc4ccncc4)cc3)c[nH]c2c1
Solution: 1 (yes)

Exercise: // return assay outcome for COc1ccc(-c2cc3c(C)nc(N)nc3n(C3CCC(OCCO)CC3)c2=O)cn1 (stereo unspecified)
Solution: 1 (yes)

Exercise: // return assay outcome for O=C(O)C1(Cc2cccc(Nc3nccs3)n2)CCC(Oc2cccc(Cl)c2F)CC1 (stereo unspecified)
Solution: 0 (no)

Exercise: // return assay outcome for CCOc1ccccc1OCCNC(C)Cc1ccc(OC)c(S(N)(=O)=O)c1 (stereo unspecified)
Solution: 0 (no)

Exercise: // return assay outcome for C1=CCOCc2cc(ccc2OCCN2CCCC2)Nc2nccc(n2)-c2cccc(c2)OCC1
Solution: 1 (yes)

Exercise: // return assay outcome for Nc1cc(C(F)(F)F)c(-c2cc(N3CCOCC3)nc(N3CCOCC3)n2)cn1
Solution: 1 (yes)

Exercise: // return assay outcome for COC(=O)Nc1nc2ccc(C(=O)c3ccc(F)cc3)cc2[nH]1
Solution: 1 (yes)

Exercise: // return assay outcome for O=C1CCC[C@@H]2[C@H]3CCC[N+]4([O-])CCC[C@@H](CN12)[C@@H]34 (stereo partly specified)
Solution: 0 (no)

Exercise: // return assay outcome for CC(C)c1ccc(Cn2ccc3c4c(N)nc(NC5CC5)nc4ccc32)cc1
Solution: 1 (yes)
